- Assay Overview: MTT cell viability run in parallel with the Tat-hybrid assay
- Assay type: cell-based
- Experimental Setup: human, Tat-hybrid reporter cell lines (HeLa); Table 5; read-out: Tat hybrid TC50
Reported Property: CC50 at 48 h

I have this molecule here, NC(=O)c1sc2cncc(-c3ccc4c(c3)CCO4)c2c1N [drawing 151] , and I need its recorded CC50 at 48 h.
< 40 µM

Same thing, different molecule: NC(=O)c1sc2cncc(N3CCC4(CC3)OCCO4)c2c1N [drawing 161]
< 40 µM

Then Cc1ccc(C(=O)N2CCN(c3cncc4sc(C(N)=O)c(N)c34)CC2)cn1 ?
< 40 µM

What about this molecule? N#Cc1ccc(-c2cncc3sc(C(N)=O)cc23)cc1F [drawing 143]
> 40 µM

Now the same for NC(=O)c1sc2cncc(Cl)c2c1N
< 40 µM

* * *

- Test system: PBMC
- Assay Overview: MTT toxicity in the PBMC replication assay
- Type: cell-based, Human
- Experimental Setup: PBMC experiment; read-out: TC50 by MTT assay
Reported Property: CC50

Field request: CC50 | item: Cc1cn([C@H]2C[C@H](N=[N+]=[N-])[C@@H](CO)O2)c(=O)[nH]c1=O
< 40 µM

* * *

- Assay Overview: Caco-2 permeability
- Type: in vitro ADME
- Experimental Setup: human
Reported Property: Papp (×10⁻⁶ cm/s)
Provide only the numeric value, understood in ×10⁻⁶ cm/s.

I am curious: what Papp value has been reported for NC(=O)c1cc2c(-c3ccc4c(c3)CCO4)cncc2s1 [Compound 4e] ?
66.6

Repeat for the following molecule: NC(=O)c1sc2cncc(N3CCCCC3)c2c1N [Compound 2b]
50.5

Thanks! And CC(=O)N1CCN(c2cncc3sc(C(N)=O)c(N)c23)CC1 [Compound 2f] ?
9.7

Subsequent entry: COc1ccc(-c2cncc3sc(C(N)=O)cc23)cc1 [Compound 4a]
59.4

* * *

- Test system: HIV-1 provirus in U1 cells
- Assay Overview: U1 activation (latency) assay, p24 ELISA
- Assay type: cell-based
- Experimental Setup: Human immunodeficiency virus 1; Table 5; read-out: U1 IC50
Reported Property: IC50

# lookup: IC50 of CN(C)c1ccc(-c2cncc3sc(C(N)=O)c(N)c23)cc1
< 100 nM

Again, but for Cc1noc(C2CCCN(c3cncc4sc(C(N)=O)c(N)c34)C2)n1 (centres unmarked) [drawing 169]
> 500 nM

Next record, please: CC(=O)N1CCN(c2cncc3sc(C(N)=O)c(N)c23)CC1 [drawing 144]
100 to 500 nM

Please answer likewise for NC(=O)c1sc2cncc(-c3ccoc3)c2c1N
100 to 500 nM

Now the same for NC(=O)c1sc2cncc(N3CCC(C(N)=O)CC3)c2c1N [drawing 158]
100 to 500 nM

Can you handle NC(=O)c1cc2c(N3CCOCC3)cncc2s1 next?
100 to 500 nM

Consider next the compound NC(=O)c1cc2c(-c3cc4ccccc4o3)cncc2s1 in the same way.
> 500 nM

What about this compound? NC(=O)c1sc2cncc(-c3ccccc3)c2c1N
100 to 500 nM

Can you handle NC(=O)c1cc2c(-c3ccc4c(c3)CCO4)cncc2s1 [drawing 128] next?
< 100 nM

Now consider COc1cc2c(cc1OC)CN(c1cncc3sc(C(N)=O)c(N)c13)CC2 and answer again.
< 100 nM

And for NC(=O)c1sc2cncc(N3CCC(F)(F)CC3)c2c1N [drawing 159] ?
100 to 500 nM

Again, but for NC(=O)c1cc2c(-c3ccccc3OC(F)(F)F)cncc2s1
> 500 nM

Again, but for NC(=O)c1sc2cncc(N3CCCCC3)c2c1N [drawing 134]
< 100 nM

Also NC(=O)c1sc2cncc(-c3ccc4c(c3)OCO4)c2c1N [drawing 157] ?
100 to 500 nM

Next compound: COc1ccccc1-c1cncc2sc(C(N)=O)c(N)c12
100 to 500 nM

Moving on to the next compound: CN(C)c1cncc2sc(C(N)=O)c(N)c12
100 to 500 nM

Next compound up: CNC(=O)c1ccc(-c2cncc3sc(C(N)=O)c(N)c23)cc1
< 100 nM

Next up: COc1ncc(-c2cncc3sc(C(N)=O)cc23)c(OC)n1
> 500 nM

Queued: NC(=O)c1sc2cncc(N3CCC4(CC3)OCCO4)c2c1N [drawing 161]
100 to 500 nM

Same question for NC(=O)c1sc2cncc(N3CCN(C=O)CC3)c2c1N please.
> 500 nM

How about NC(=O)c1sc2cncc(N3CCc4sccc4C3)c2c1N ?
< 100 nM

Another compound: NC(=O)c1sc2cncc(-c3cccc4ccccc34)c2c1N
< 100 nM

How about N#Cc1ccccc1-c1cncc2sc(C(N)=O)cc12 [drawing 164] ?
> 500 nM

* * *

- Assay Overview: MTT cell viability run in parallel with the Tat-hybrid assay
- Type: cell-based
- Experimental Setup: human, Tat-hybrid reporter cell lines (HeLa); Table 6; second 'EC50' entry of the cell, values D/E
Reported Property: EC50 at 48 h

Please look up its EC50 at 48 h: Cc1cc(C(F)F)nc2sc(C(N)=O)c(N)c12
> 40 µM

Same question for Cc1cc(C(F)(F)F)nc2sc(C(N)=O)c(N)c12 please.
> 40 µM

One more molecule: NC(=O)c1sc2nc3c(c(-c4ccco4)c2c1N)CCCC3
> 40 µM

// query: Cc1cc(C)c2c(N)c(C(=O)O)sc2n1
> 40 µM

NC(=O)c1sc2nc(-c3cccnc3)ccc2c1N ?
< 40 µM

Item: COC(=O)c1sc2nccc(N(C)C)c2c1N
< 40 µM

What do we get for CC(=O)c1sc2nc(C)cc(C)c2c1N ?
> 40 µM

* * *

Please go through the items and note down their CC50 at 3 days.
- Assay Overview: MTT cell viability in parallel with the U1 assay
- Format: cell-based
- Experimental Setup: human, U1 cells; Table 6; read-out: U1 TC50

Quick one: CC50 at 3 days for NC(=O)c1sc2nccc(Nc3ccccc3)c2c1N ?
> 40 µM

Same question, COCc1cc(C)nc2sc(C(N)=O)c(N)c12 this time
> 40 µM

Try this compound too: Cc1ccc(-c2c3c(nc4sc(C(N)=O)c(N)c24)CCC3)cc1
< 40 µM

Would you mind doing Cc1cc(C)c2c(N)c(C(N)=O)sc2n1 as well?
> 40 µM

Follow-up item: NC(=O)c1sc2nc3c(c(-c4ccco4)c2c1N)CCCC3
< 40 µM

Proceed to CCc1c(C)nc2sc(C(N)=O)c(N)c2c1C
> 40 µM

* * *

Consider the following compounds; for each one, report its IC50.
- System: HIV-1 provirus in U1 cells
- Assay Overview: U1 activation (latency) assay, p24 ELISA
- Assay type: cell-based
- Experimental Setup: Human immunodeficiency virus 1; Table 5; read-out: U1 IC50

Looking for the measured IC50 of COc1ccc(-c2cncc3sc(C(N)=O)c(N)c23)cc1 [drawing 136] , can you help?
< 0.1 µM

Item: NC(=O)c1cc2c(-c3cccc(-c4ccccc4)c3)cncc2s1 [drawing 145]
0.1 to 0.5 µM

Could you do the same for CCOc1ncccc1-c1cncc2sc(C(N)=O)c(N)c12 , please?
0.1 to 0.5 µM

Now the same for N#Cc1ccc(-c2cncc3sc(C(N)=O)cc23)cc1F [drawing 143]
0.1 to 0.5 µM

Same again, this time with NC(=O)c1sc2cncc(-c3ccc4cc[nH]c4c3)c2c1N
0.1 to 0.5 µM

Can you check NC(=O)c1cc2c(-c3ccc(Oc4ccccc4)cc3)cncc2s1 next?
0.1 to 0.5 µM

Another compound to check: NC(=O)c1sc2cncc(N3CCc4ccccc4C3)c2c1N
< 0.1 µM

Likewise for COc1ccc(-c2cncc3sc(C(N)=O)cc23)cc1 [drawing 129] ?
< 0.1 µM

Now the same for NC(=O)c1cc2c(-c3ccc4ccccc4c3)cncc2s1
< 0.1 µM

What do you get for NC(=O)c1sc2cncc(-c3ccc4c(c3)OCCO4)c2c1N ?
0.1 to 0.5 µM

Try NC(=O)c1cc2c(-c3ccc4c(c3)OCO4)cncc2s1 [drawing 137] next.
< 0.1 µM

* * *

- Test system: U1 cells
- Assay Overview: MTT cell viability in parallel with the U1 assay
- Format: cell-based
- Experimental Setup: Table 6; read-out: U1 TC50
Reported Property: CC50

Please look up its CC50: CN(C)c1ccnc2sc(C(N)=O)c(N)c12 [drawing 241]
> 40 µM

* * *

- Assay Overview: MTT cell viability run in parallel with the Tat-hybrid assay
- Assay type: cell-based
- Experimental Setup: human, Tat-hybrid reporter cell lines (HeLa); Table 5; read-out: Tat hybrid TC50
Kindly supply the reported CC50 at 48 h values for the records listed here.

Item under review: NC(=O)c1cc2c(-c3ccc4c(c3)OCO4)cncc2s1 [drawing 137] . Reported CC50 at 48 h?
< 40 µM

Ok, now NC(=O)c1sc2cncc(N3CCc4sccc4C3)c2c1N
> 40 µM

And then CN(C)c1cncc2sc(C(N)=O)c(N)c12 , what is it?
< 40 µM

Can you check CN(C)c1ccc(-c2cncc3sc(C(N)=O)c(N)c23)cc1 next?
< 40 µM

Likewise for CC(=O)N1CCN(c2cncc3sc(C(N)=O)cc23)CC1 ?
> 40 µM

Ok, now NC(=O)c1sc2cncc(-c3ccc4cc[nH]c4c3)c2c1N
> 40 µM

Same read-out for CN1CCN(c2cncc3sc(C(N)=O)c(N)c23)CC1 ?
< 40 µM

Entry to check: NC(=O)c1sc2cncc(N3CCCCC3)c2c1N [drawing 134]
> 40 µM

Repeat for the following molecule: CN(C)c1cccc(-c2cncc3sc(C(N)=O)c(N)c23)c1
< 40 µM

Try NC(=O)c1sc2cncc(N3CCc4ccccc4C3)c2c1N next.
< 40 µM

Data credit: patent US10154992B2
